Value source: patent US4192871A

PROTOCOL_DETAILS: pH of the salt solutions
Assay type: physicochemical
STUDY_CONDITIONS: aqueous solution of the salt, Table 5
ENDPOINT: pH
Answers are plain numbers.

- COMPOUND: "CCN(CC)CC(=O)O[C@H]1C[C@]2(C)[C@@H](C(C)=O)CC[C@H]2[C@@H]2C[C@@H](C)[C@H]3C[C@H](O)CC[C@]3(C)[C@H]21"
  ENDPOINT: "pH"
  VAL: 3.4

For every item below, please supply its pH.
1. CCN(CC)CC(=O)O[C@H]1C[C@]2(C)[C@@H](C(C)=O)CC[C@H]2[C@@H]2CC[C@H]3C[C@H](O)[C@@H](Cl)C[C@]3(C)[C@H]21
2. CCCN(CCC)CC(=O)O[C@H]1C[C@]2(C)[C@@H](C(C)=O)CC[C@H]2[C@@H]2CC[C@H]3C[C@H](O)[C@@H](C)C[C@]3(C)[C@H]21
3. CC(=O)[C@H]1CC[C@H]2[C@@H]3CC[C@H]4C[C@H](O)CC[C@]4(C)[C@H]3[C@@H](OC(=O)CN(C)C(C)CC(C)C)C[C@]12C (stereo partly shown)
4. CCCN(CCC)CC(=O)O[C@H]1C[C@]2(C)[C@@H](C(C)=O)CC[C@H]2[C@@H]2CC[C@H]3C[C@H](O)CC[C@]3(C)[C@H]21 [Example 216]

3.65
2.8
3.43
3.58

For every item below, please supply its pH.
1. CC(=O)[C@H]1CC[C@H]2[C@@H]3CC[C@H]4C[C@H](O)CC[C@]4(C)[C@H]3[C@@H](OC(=O)CN(C)CCc3ccccc3)C[C@]12C
2. CC(=O)[C@H]1CC[C@H]2[C@@H]3CC[C@H]4C[C@H](O)CC[C@]4(C)[C@H]3[C@@H](OC(=O)CNC(C)CCC(C)C)C[C@]12C (stereo partly shown)
3. C=CCN(C)CC(=O)O[C@H]1C[C@]2(C)[C@@H](C(C)=O)CC[C@H]2[C@@H]2CC[C@H]3C[C@H](O)CC[C@]3(C)[C@H]21
4. CC(=O)[C@H]1CC[C@H]2[C@@H]3CC[C@H]4C[C@H](O)CC[C@]4(C)[C@H]3[C@@H](OC(=O)CNC(C(C)C)C(C)C)C[C@]12C
5. CC(=O)[C@H]1CC[C@H]2[C@@H]3CC[C@H]4C[C@H](O)CC[C@]4(C)[C@H]3[C@@H](OC(=O)CNC3CCCCC3)C[C@]12C
6. CCC(C)N(CC(=O)O[C@H]1C[C@]2(C)[C@@H](C(C)=O)CC[C@H]2[C@@H]2CC[C@H]3C[C@H](O)CC[C@]3(C)[C@H]21)C(C)CC (stereo partly shown)
7. CCC(C)CN(C)CC(=O)O[C@H]1C[C@]2(C)[C@@H](C(C)=O)CC[C@H]2[C@@H]2CC[C@H]3C[C@H](O)CC[C@]3(C)[C@H]21 (stereo partly shown)
8. CCN(CC)CC(=O)OC1CC2(C)C(C(C)=O)CCC2C2CCC3CC(O)C(C)CC3(C)C12 (stereo not shown) [Example 173]

2.65
2.85
3.20
2.79
3.10
2.03
2.85
2.82

====

PROTOCOL_DETAILS: dissolution of the 11β-aminoester salts in aqueous acid (Table 5 and Examples 101, 225-229)
Format: physicochemical
STUDY_CONDITIONS: method B: further acid added, undissolved material weighed; WT. of solution 10 g, except Ex. 130 and 141: 9.2; 142: 9.23; 143, 144, 189 and 199: 9.8; 149: 10.6; 153: 7.9; 162 and 188: 9.5; 163: 68; 166: 10.4; 168: 10.7; 169: 10.9; 183: 8.05; 184 and 201: 9.83; 185: 7.1; 186: 9.3; 192: 10.07; 193: 6.4; 195: 6.8; 196: 7; 197: 7.2; 200: 10.1; 206: 15 g
Procedure: A solution of the above free base (492 mg; 1 mmole) in ethanol (10 ml) was treated with a solution (10 ml) of M/10 citric acid in ethanol water (9:1) and the mixture evaporated in vacuo at low temperature to afford a froth. […] A. The 11β-aminoester (1 part) was added to a solution of the acid (1 molar part) in water and the mixture stirred or shaken until a clear solution was obtained. The solution was made up with water to the weight indicated, filtered through a membrane and the pH determined. […]
ENDPOINT: Dissolved aminoester (mg)
Give bare numbers, in mg.

For every item below, please supply its Dissolved aminoester.
1. CC(=O)[C@H]1CC[C@H]2[C@@H]3CC[C@H]4C[C@H](O)CC[C@]4(C)[C@H]3[C@@H](OC(=O)CN(C)C(C)(C)C)C[C@]12C [Example 201]
2. CCCCCNCC(=O)O[C@H]1C[C@]2(C)[C@@H](C(C)=O)CC[C@H]2[C@@H]2CC[C@H]3C[C@H](O)CC[C@]3(C)[C@H]21 [Example 130]
3. CCC(C)CN(CC)CC(=O)O[C@H]1C[C@]2(C)[C@@H](C(C)=O)CC[C@H]2[C@@H]2CC[C@H]3C[C@H](O)CC[C@]3(C)[C@H]21 (stereo partly shown) [Example 196]
4. CC(=O)[C@H]1CC[C@H]2[C@@H]3CC[C@H]4C[C@H](O)CC[C@]4(C)[C@H]3[C@@H](OC(=O)CN(C(C)C)C(C)C)C[C@]12C [Example 153]
5. CCCC(C)NCC(=O)O[C@H]1C[C@]2(C)[C@@H](C(C)=O)CC[C@H]2[C@@H]2CC[C@H]3C[C@H](O)CC[C@]3(C)[C@H]21 (stereo partly shown) [Example 141]
6. CC(=O)[C@H]1CC[C@H]2[C@@H]3CC[C@H]4C[C@H](O)CC[C@]4(C)[C@H]3[C@@H](OC(=O)CN(C)Cc3ccccc3)C[C@]12C [Example 119]
7. CC(=O)[C@H]1CC[C@H]2[C@@H]3CC[C@H]4C[C@H](O)CC[C@]4(C)[C@H]3[C@@H](OC(=O)CN(C)CC(C)(C)C)C[C@]12C [Example 188]
8. COC(=O)[C@H]1CC[C@H]2[C@@H]3CC[C@H]4C[C@H](O)CC[C@]4(C)[C@H]3[C@@H](OC(=O)CN3CCCCC3)C[C@]12C [Example 125]

1: 98.3; 2: 80; 3: 39; 4: 79; 5: 77.3; 6: 73; 7: 31; 8: 98

For every item below, please supply its Dissolved aminoester.
1. CCC(C)N(CC(=O)O[C@H]1C[C@]2(C)[C@@H](C(C)=O)CC[C@H]2[C@@H]2CC[C@H]3C[C@H](O)CC[C@]3(C)[C@H]21)C(C)CC (stereo partly shown) [Example 147]
2. CC(=O)[C@H]1CC[C@H]2[C@@H]3CC[C@H]4C[C@H](O)CC[C@]4(C)[C@H]3[C@@H](OC(=O)CN3CCCCCCC3)C[C@]12C [Example 128]

85
68

For every item below, please supply its Dissolved aminoester.
1. CC(=O)[C@H]1CC[C@H]2[C@@H]3CC[C@H]4C[C@H](O)CC[C@]4(C)[C@H]3[C@@H](OC(=O)CN(C)[C@@H](C)CC(C)C)C[C@]12C [Example 199]
2. CCCCOC1CC2(C)C(CCC3C4CCC(C(C)=O)C4(C)CC(OC(=O)CN4CCC(C)CC4)C32)CC1O (stereo not shown) [Example 169]
3. CC(=O)[C@H]1CC[C@H]2[C@@H]3CC[C@H]4C[C@H](O)CC[C@]4(C)[C@H]3[C@@H](OC(=O)CN(C)CCc3ccccc3)C[C@]12C [Example 126]

88
80.5
56

====

PROTOCOL_DETAILS: pH of the salt solutions
Format: physicochemical
STUDY_CONDITIONS: aqueous solution of the salt, Table 5
Assign TRUE whenever pH does not fall below 3; assign FALSE whenever it does.

- COMPOUND: "CCN(CC)CC(=O)O[C@H]1C[C@]2(C)[C@@H](C(C)=O)CC[C@H]2[C@@H]2CC[C@H]3C[C@](C)(O)CC[C@]3(C)[C@H]21"
  CAT: "TRUE"
- COMPOUND: "CC(=O)C1C(C)CC2C3CCC4CC(O)CCC4(C)C3C(OC(=O)CN3CCC(C)CC3)CC21C (stereo not shown)"
  CAT: "TRUE"
- COMPOUND: "CCOC1CC2(C)C(CCC3C4CCC(C(C)=O)C4(C)CC(OC(=O)CNC(C)CC(C)C)C32)CC1O (stereo not shown)"
  CAT: "TRUE"
- COMPOUND: "CCOC1CC2(C)C(CCC3C4CCC(C(C)=O)C4(C)CC(OC(=O)CNCCC(C)C)C32)CC1O (stereo not shown)"
  CAT: "TRUE"
- COMPOUND: "CC(=O)[C@H]1CC[C@H]2[C@@H]3CC[C@H]4C[C@H](O)CC[C@]4(C)[C@H]3[C@@H](OC(=O)CNC(C)CC(C)C)C[C@]12C (stereo partly shown)"
  CAT: "TRUE"
- COMPOUND: "C=CCN(CC=C)CC(=O)O[C@H]1C[C@]2(C)[C@@H](C(C)=O)CC[C@H]2[C@@H]2CC[C@H]3C[C@H](O)CC[C@]3(C)[C@H]21"
  CAT: "FALSE"
- COMPOUND: "CCCCN(C)CC(=O)O[C@H]1C[C@]2(C)[C@@H](C#N)CC[C@H]2[C@@H]2CC[C@H]3C[C@H](O)CC[C@]3(C)[C@H]21"
  CAT: "TRUE"
- COMPOUND: "CC(=O)[C@H]1CC[C@H]2[C@@H]3CC[C@H]4C[C@H](O)CC[C@]4(C)[C@H]3[C@@H](OC(=O)CN3CCC(C)CC3)C[C@]12C"
  CAT: "TRUE"

Can CC(=O)[C@H]1CC[C@H]2[C@@H]3CC[C@H]4C[C@H](O)CC[C@]4(C)[C@H]3[C@@H](OC(=O)CN3CCCCCCC3)C[C@]12C be said to have pH at or above 3?
FALSE

Can CCCO[C@H]1C[C@@]2(C)[C@@H](CC[C@@H]3[C@@H]2[C@@H](OC(=O)CN2CCC(C)CC2)C[C@]2(C)[C@@H](C(C)=O)CC[C@@H]32)C[C@@H]1O be said to have pH at or above 3?
FALSE

Can CCCCOC1CC2(C)C(CCC3C4CCC(C(C)=O)C4(C)CC(OC(=O)CN(C)CCCC)C32)CC1O (stereo not shown) be said to have pH at or above 3?
FALSE

Can CCN(CC)CC(=O)OC1CC2(C)C(C(=O)COC)CCC2C2CCC3CC(O)CCC3(C)C12 (stereo not shown) be said to have pH at or above 3?
TRUE
